- target system: MAP kinase-interacting serine/threonine-protein kinase 2 (Homo sapiens) (UniProt Q9HBH9)
- Sequence (Q9HBH9 whole entry, looked up): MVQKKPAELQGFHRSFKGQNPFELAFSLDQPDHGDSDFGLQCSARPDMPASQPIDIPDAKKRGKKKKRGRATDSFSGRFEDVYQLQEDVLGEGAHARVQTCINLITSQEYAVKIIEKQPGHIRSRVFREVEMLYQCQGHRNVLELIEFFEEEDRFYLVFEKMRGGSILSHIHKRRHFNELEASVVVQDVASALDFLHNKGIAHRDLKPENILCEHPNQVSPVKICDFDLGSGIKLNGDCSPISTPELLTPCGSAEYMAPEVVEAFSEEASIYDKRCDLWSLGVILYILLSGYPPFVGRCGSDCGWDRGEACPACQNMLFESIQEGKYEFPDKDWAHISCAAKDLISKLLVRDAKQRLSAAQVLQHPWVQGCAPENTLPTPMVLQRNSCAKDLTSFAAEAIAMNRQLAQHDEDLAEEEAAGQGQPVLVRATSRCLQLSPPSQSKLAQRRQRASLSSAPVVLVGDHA
- test conditions: at 1 µM
- Description: GSK_PKIS: MNK2 mean inhibition at 1 uM [Nanosyn]
Quick rule for you: inhibition at 10% or higher means true, lower means false.

Asked: Is the recorded value of inhibition equal to or greater than 10% for this compound? O=C(Nc1n[nH]c2nc(-c3ccco3)c(Br)cc12)C1CC1
Given back: false

Asked: Is the recorded value of inhibition equal to or greater than 10% for this compound? COc1cc2ncn(-c3cc(OCc4ccccc4C(F)(F)F)c(C(N)=O)s3)c2cc1OC
Given back: false

Asked: Is the recorded value of inhibition equal to or greater than 10% for this compound? CCN1CCC(CC(=O)Nc2n[nH]c3nc(-c4cccs4)c(Br)cc23)CC1
Given back: true

Asked: Is the recorded value of inhibition equal to or greater than 10% for this compound? CS(=O)(=O)CCNCc1nc(-c2ccc3ncnc(Nc4ccc(F)c(Cl)c4)c3c2)cs1
Given back: true

Asked: Is the recorded value of inhibition equal to or greater than 10% for this compound? CCCN1CCC=C(c2ccc(Nc3nc(Nc4ccccc4C(N)=O)c4cc[nH]c4n3)c(C)c2)C1
Given back: false

Asked: Is the recorded value of inhibition equal to or greater than 10% for this compound? O=C1NC(=O)C(c2ccc(Cl)cc2)=C1Nc1ccc(Cl)c(C(=O)O)c1
Given back: false

Asked: Is the recorded value of inhibition equal to or greater than 10% for this compound? CC1=C(C(=O)Nc2ccc3[nH]ncc3c2)C(c2ccc(F)cc2)NC(=O)N1 (centres undefined)
Given back: true

Asked: Is the recorded value of inhibition equal to or greater than 10% for this compound? COc1cc2ncn(-c3cc(O[C@H](C)c4ccccc4Cl)c(C(N)=O)s3)c2cc1OC
Given back: true

Asked: Is the recorded value of inhibition equal to or greater than 10% for this compound? CCn1c(-c2nonc2N)nc2ccncc21
Given back: false

Asked: Is the recorded value of inhibition equal to or greater than 10% for this compound? CNC(=O)c1cncc(/C=C/c2c(Cl)cccc2Cl)c1
Given back: true

Asked: Is the recorded value of inhibition equal to or greater than 10% for this compound? COC(=O)Nc1nc2cc(Oc3ccc(NC(=O)Nc4cccc(C(=O)O)c4)cc3)ccc2[nH]1
Given back: false

Asked: Is the recorded value of inhibition equal to or greater than 10% for this compound? Nc1nc(-c2ccc3c(c2)C(=Cc2cc(Br)c(O)c(Br)c2)C(=O)N3)cs1
Given back: true

Asked: Is the recorded value of inhibition equal to or greater than 10% for this compound? N#Cc1c(NC(=O)c2cccc3ccccc23)sc2c1CCCC2
Given back: false

Asked: Is the recorded value of inhibition equal to or greater than 10% for this compound? COc1cc(C=NNc2ncnc3c2cnn3-c2ccccc2)ccc1O
Given back: true
